Data origin: PubChem BioAssay (NCI)

# Tested on: SN12C renal
# TEST SUMMARY: NCI tumour cell line growth inhibition, 48 h; in the data active means GI50 below about 0.43 µM; inactive means the rest
Possible outcomes: yes (active), no (inactive)

| COMPOUND | CATEGORY |
| --- | --- |
| CCOc1ccc(-c2nonc2NC(=O)c2cccc(C)c2)cc1OCC | no |
| Cc1ccc(-n2c3c(c4c(CN(C)C)c(O)ccc42)CCc2ccccc2C3=O)cc1 | no |
| NC(N)=N/N=C\c1cccc(OCc2ccccc2)c1 | no |
| COc1cc(C)c(Cl)cc1C1=NN(c2ccc(S(N)(=O)=O)cc2)C(/C=C/c2ccccc2)C1 (stereo not drawn) | no |
| O=c1nc2n(-c3ccc(Cl)cc3)c3ccc([N+](=O)[O-])cc3cc-2c(=O)[nH]1 | no |
| O=C1CCCCCCCC/C=C\CC(c2ccco2)O1 (stereo not drawn) | no |
| CC(=O)[CH-]C(=O)c1ccccc1.CC(=O)[CH-]C(=O)c1ccccc1.CC1(C)C2CCC1(C)C([O-])C2.CC1(C)C2CCC1(C)C([O-])C2.[Ti+4] | no |
| CC(=O)[CH-]C(=O)c1ccccc1.CC(=O)[CH-]C(=O)c1ccccc1.CC(C)CCCC(C)[C@H]1CCC2[C@@H]3CC=C4C[C@@H]([O-])CC[C@]4(C)C3CC[C@@]21C.CC[O-].[Ti+4] (stereo partly drawn) | no |
| COc1ccc(/C=C\c2cc(OC)c(OC)c(OC)c2)cc1OC(=O)c1cccc(Cn2cc(CCOC(=O)[C@H](N)Cc3cn(C)c4ccccc34)nn2)c1 | yes |
| O=C(/C=C/c1cccnc1)NCCCCC1CCCN(C(=O)c2ccccc2)C1 (stereo not drawn) | yes |
| CCC/C(=N/N=C(N)N)c1ccc(NC(=O)c2cc3cc(OC)ccc3[nH]2)cc1 | no |
| CCn1c(CN2CCN(Cc3ccccc3)CC2)nc2cc(NC(=O)c3cccs3)ccc21 | no |
| Cc1c(-c2c(-c3ccc(F)o3)sc3ncnc(O[C@H](Cc4ccccc4OCc4ccnn4CC(F)(F)F)C(=O)O)c23)ccc(OCCN2CCN(C)CC2)c1Cl | no |
| Cc1ccc(/C=C2/SC(Nc3nc(-c4csc(NC5=NC(=O)/C(=C\c6ccc(C)cc6)S5)n4)cs3)=NC2=O)cc1 | no |
| O=c1c2ccccc2n(C[C@H]2CO2)c2ccccc12 | no |
| C=C(CN1C(=O)[C@H]2CCCN2C(=O)c2ccccc21)c1ccc(C(=O)O)cc1 | no |
| O=C1NC(O)C(c2c[nH]c3ccccc23)=C1c1c[nH]c2ccccc12 (stereo not drawn) | no |
| c1ccc2[nH]c(-c3ccc(NN=Nc4ccncc4)cc3)nc2c1 | no |

----------
Examples of molecules with documented TGI follow.
# System: OVCAR-8 ovarian
# TEST SUMMARY: NCI tumour cell line growth inhibition, 48 h
READOUT NAME: TGI

| MOLECULE | VALUE REPORTED |
| --- | --- |
| N[C@@H]1CCCC[C@H]1N.O=C([O-])C(=O)[O-].[Pt+4] | > 100 µM |
| C/C(=N/Nc1nc2ccccc2n1C)c1ccccn1 | 16.2 µM |
| O/C(=C\c1nc2ccccc2nc1/C=C(\O)c1ccc(Cl)cc1)c1ccccc1 | > 100 µM |
| CC(=O)OCC1OC(n2c(-c3ccccc3)c(C(C)=O)c(-c3ccc(Cl)cc3)c(C#N)c2=S)C(OC(C)=O)C(OC(C)=O)C1OC(C)=O (stereo unspecified) | > 100 µM |
| COc1cc2c3c(n(CCCN)c(=O)c2cc1OC)-c1cc2c(cc1/C3=C\CCN)OCO2 | 13.1 µM |
| O=C1CCCCCCCC/C=C\CC(c2ccco2)O1 (stereo unspecified) | > 100 µM |
| N#Cc1nc2c(S(=O)(=O)c3ccccc3)c(N)n(Cc3cccnc3)c2nc1C#N | > 100 µM |
| CC(C)=NN/C(=N\S(=O)(=O)c1ccc(C)cc1)Nc1ccc(Cl)cc1 | > 100 µM |
| Cc1cc2nc3c4cc(N)ccc4n(CCN(C)C)c3nc2cc1C | 12.8 µM |
| COc1cc(NC(C)=O)ccc1C(=O)N/N=C/c1ccc(Cl)cc1Cl | > 100 µM |
| CC(C)(C)N1C(C(=O)c2ccccc2)C1c1ccccc1 (stereo unspecified) | > 100 µM |
| O=C1c2ccccc2C(=O)[C@@]23O[C@@]12C1(Oc2cccc4cccc(c24)O1)[C@@H]1O[C@@H]1[C@@H]3O | 12.8 µM |
| CN(C(=O)C12C3C4C1C1C4(C(=O)C45C6C7C4C4C5C6C74C)C3C12C)C(C)(C)C (stereo unspecified) | > 100 µM |
| N#CN=C(N)NC(=O)/C=C/C=C/c1ccc(Cl)cc1 | > 100 µM |
| O=C(CC(C(=O)c1cccs1)c1ccsc1)c1cccs1 (stereo unspecified) | > 100 µM |
| O=C1/C(=C/c2ccccc2)CN(C(=O)c2cccnc2)C/C1=C\c1ccccc1 | 11.8 µM |
| CC(C)(C)c1nn(-c2ccccc2)c2c1C(=O)CSC(c1ccccc1Cl)N2 (stereo unspecified) | 30.2 µM |
| Cn1nc2ccc3nccc(N4CCN(CCO)CC4)c3c2n1 | > 100 µM |
| COC(=O)c1ccccc1C1CN=NC12Cc1ccc(C)c(C)c1C2=O (stereo unspecified) | > 100 µM |
| COC(=O)C1(c2cc3ccccc3n2S(=O)(=O)c2ccccc2)CC2C=CC1NC2 (stereo unspecified) | 4.42 µM |
| C#CCC(Cc1cnc2nc(N)nc(N)c2n1)c1ccc(C(=O)N[C@@H](CCC(=O)O)C(=O)O)cc1 (stereo partly specified) | > 100 µM |
